The measurements presented in this section are drawn from the supplement of paper PMC10567573.

B1: APBB1IP (parent)
chain: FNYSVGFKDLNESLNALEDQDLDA

- Variants of: B1
- assayProcedure: protein stability index of a GFP-peptide fusion (GPS, HEK-293T) (PSI 1-6); higher = more stable;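 also: lentivirally expressed fusions sorted by FACS into six bins by GFP to DsRed ratio, PSI derived from sequencing read proportions per bin multiplied by bin number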
- testContext: c terminus: a fixed tail appended
experimentalEndpoint: protein stability index

> print(dat)
   mutantname     experimentalendpoint  measurednumber
1        D19N  protein stability index            4.04
2        N15E  protein stability index            4.14
3        A16W  protein stability index            3.41
4        D19L  protein stability index            3.53
5        A24L  protein stability index            4.09
6         G6L  protein stability index             2.3
